- experimentalTarget: Polyunsaturated fatty acid 5-lipoxygenase (Rattus norvegicus)
- Sequence (P12527 whole entry): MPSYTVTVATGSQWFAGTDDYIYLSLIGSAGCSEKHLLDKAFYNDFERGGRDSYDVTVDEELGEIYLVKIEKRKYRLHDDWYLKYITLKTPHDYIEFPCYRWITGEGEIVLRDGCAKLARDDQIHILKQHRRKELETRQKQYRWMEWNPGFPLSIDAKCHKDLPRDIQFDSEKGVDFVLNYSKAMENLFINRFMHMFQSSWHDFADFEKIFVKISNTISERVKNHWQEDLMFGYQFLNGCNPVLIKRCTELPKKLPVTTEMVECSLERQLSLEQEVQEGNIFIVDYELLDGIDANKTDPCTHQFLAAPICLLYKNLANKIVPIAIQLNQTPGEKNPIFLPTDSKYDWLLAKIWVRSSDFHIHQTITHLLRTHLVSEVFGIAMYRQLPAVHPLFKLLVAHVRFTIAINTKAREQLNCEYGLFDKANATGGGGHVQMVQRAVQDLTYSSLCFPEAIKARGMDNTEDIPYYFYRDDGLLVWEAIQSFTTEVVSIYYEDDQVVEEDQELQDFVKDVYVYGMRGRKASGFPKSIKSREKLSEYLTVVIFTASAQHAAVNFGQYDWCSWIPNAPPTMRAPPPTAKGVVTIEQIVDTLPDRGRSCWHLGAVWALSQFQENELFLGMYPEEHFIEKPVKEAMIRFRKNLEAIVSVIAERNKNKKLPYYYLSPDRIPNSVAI
- runDescription: Inhibition of 5-lipoxygenase in Wistar rat peritoneal leukocytes
Field: IC50. Provide a value for each of the compounds that follow.
Report only the number, with the unit µM understood.

Input line: // returns reported IC50 for input COc1ccc(-c2cc(=O)c3c(O)cc(O)cc3o2)cc1
Output line: 123

Input line: Follow-up entry: C=C1CC/C=C(\C)C(=O)[C@H](OC(C)=O)[C@@H]2[C@@H]1CC2(C)C
Output line: 50.4

* * *

- Species on record: Rattus norvegicus
- runDescription: Inhibition of cyclooxygenase in Wistar rat peritoneal leukocytes at 50 ug/mL
- Assay type: cell-based
Field: inhibition. Provide a value for each of the compounds that follow.
Report only the number, with the unit % understood.

Input line: // returns reported inhibition for input O=C(/C=C/c1ccc(O)c(O)c1)O[C@H]1[C@H](O)[C@@H](O)[C@H](OCCc2ccc(O)c(O)c2)O[C@@H]1CO
Output line: 0

Input line: Follow-up entry: C=C1CC/C=C(\C)C(=O)C[C@@H]2[C@@H]1CC2(C)C
Output line: 9.5

Input line: Follow-up entry: COC(CO[C@@H]1O[C@H](CO)[C@@H](OC(=O)/C=C/c2ccc(O)c(O)c2)[C@H](O[C@@H]2O[C@@H](C)[C@H](O)[C@@H](O)[C@H]2O)[C@H]1O)c1ccc(O)c(O)c1 (stereo not given in full)
Output line: 0

Input line: Follow-up entry: C/C1=C\CC(C)(C)/C=C/C(=O)/C(C)=C/CC1
Output line: 0

Input line: Follow-up entry: COc1ccc(-c2cc(=O)c3c(O)cc(O)cc3o2)cc1
Output line: 69.5

Input line: Follow-up entry: COc1ccc2c(c1)c(CC(=O)O)c(C)n2C(=O)c1ccc(Cl)cc1
Output line: 100

Input line: Follow-up entry: C[C@@H]1O[C@@H](O[C@@H]2[C@@H](O)[C@H](OCCc3ccc(O)c(O)c3)O[C@H](CO)[C@H]2OC(=O)/C=C/c2ccc(O)c(O)c2)[C@H](O)[C@H](O)[C@H]1O
Output line: 0

Input line: Follow-up entry: C[C@@H]1O[C@@H](O[C@@H]2[C@@H](O)[C@H](OCCc3ccc(O)c(O)c3)O[C@H](CO[C@@H]3OC[C@H](O)[C@H](O)[C@H]3O)[C@H]2OC(=O)/C=C/c2ccc(O)c(O)c2)[C@H](O)[C@H](O)[C@H]1O
Output line: 0

Input line: Follow-up entry: CC(/C=C/C=C(\C)C(=O)O)=C\C=C\C=C(C)\C=C\C=C(/C)C(=O)O[C@H]1O[C@H](CO[C@@H]2O[C@H](CO)[C@@H](O)[C@H](O)[C@H]2O)[C@@H](O)[C@H](O)[C@H]1O
Output line: 85.1

Input line: Follow-up entry: C=C1CCC[C@H](C)C(=O)[C@H](OC(C)=O)[C@@H]2[C@@H]1CC2(C)C
Output line: 0
